Biological target: T1, human big-endothelin-1 (big-ET-1) (human)
T1 construct: 38 amino acid peptide; also called human big-ET-1; hBig-ET-1
T1 peptide: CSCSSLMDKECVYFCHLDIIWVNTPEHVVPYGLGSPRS
Assay: SPR (Biacore T200), 37 C, mAb capture, peptide analyte
MEASURED_QUANTITY: T½ (min)
Please state the figure in min; there is no need to write the unit.

Some solved cases for reference:
H4H6330P (antibody, V domains shown, Human IgG4 Fc (prefix H4H)) VH: EVQLVESGGGLVQPGGSLRLSCAASGFTFSNYAMSWVRQAPGKGLEWVSAVSGSGVGTYYADSVKGRFTISRDNSKNTLYLQMKSLSAEDTALYYCTKTLGGTHAFDIWGQGTMVTVSS VL: DIQMTQSPSTLSASVGDRVTITCRASQSISRWLAWYQQKPGKAPKLLIYKASSLESGVPSRFSGSGSGTEFTVTINSLQPDDFATYYCQQYNSYSSFGQGTKLEIK :: 0.4
H4H6492N2 (antibody, V domains shown, Human IgG4 Fc (prefix H4H)) VH: EVQLVESGGGLVKPGGSLRVSCVASGFTFSNAWMTWVRQTPGKGLEWVGRIKSRTDGGTVDYVAPVKGRFTISRDDSKNTLYLQMNSLKAEDTAVYYCRADLDYWGQGTLVTVSS VL: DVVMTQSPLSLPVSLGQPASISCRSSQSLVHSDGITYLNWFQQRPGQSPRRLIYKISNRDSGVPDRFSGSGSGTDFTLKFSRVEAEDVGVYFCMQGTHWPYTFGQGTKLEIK :: 0.4
H4H6323P (antibody, V domains shown, Human IgG4 Fc (prefix H4H)) VH: QITLKESGPPLVKPTQTLTLTCTFSGFSLNTNGMGVGWIRQPPGKALEWLTLIYWNDDKRYSPSLKTRLTITKDTSKNQVVLTMTNMDPVDTATYYCARFGSGTYWGQGTLVTVSS VL: DIVMTQSPLSLPVTPGEPASISCRSSQSLLHSYGYNFLDWFLQKPGQSPQLLIYLGSHRASGVPDRFSGSGSGTDFTLKISRVEAEDVGVYYCMQALQTPLTFGGGTKVEIK :: 2

Reported T½, binder H1M6494N (antibody, V domains shown, Hybridoma antibody, human variable domains, mouse constant domains; prefix H1M marks the Fc region (isotype not spelled out)) VH: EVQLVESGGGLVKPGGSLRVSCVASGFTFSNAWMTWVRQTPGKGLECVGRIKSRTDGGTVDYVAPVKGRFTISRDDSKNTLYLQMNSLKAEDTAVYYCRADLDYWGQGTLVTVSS VL: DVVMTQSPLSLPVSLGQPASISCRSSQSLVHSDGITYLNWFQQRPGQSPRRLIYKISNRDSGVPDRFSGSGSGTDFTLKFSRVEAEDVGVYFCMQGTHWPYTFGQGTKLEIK : ____ 7

Query H2M6490N (antibody, V domains shown, Hybridoma antibody, human variable domains, mouse IgG2 Fc (prefix H2M)) VH: EVQLLESGGGLVQPGGSLRLSCAASGFTFSSYAMTWVRQAPGKGLECISAISGSGYSTYYADSMKGRFSISRDNSKNTLYLQMNRLRAEDTAVYYCTKGGRILEWLLPFDFWGQGTLVTVSS VL: DVVMTQSPLSLPVTLGQPASISCRSSQSLVYSDGNTYLIWFQQRPGQSPRRLIYKVSNRDSGVPDRFSGSGSGTDFTLIISRVEAEDVGLYYCMQGTHWPPTFGGGTKVEIK next 3
